studySystem: T1, recombinant human DLL4 (Cat# 1506-D4/CF, R&D Systems) (human, UniProt Q9NR61 27-529)
T1 construct: Bought protein; also called hDLL4; rHuman DLL4
assayInfo: ELISA, DLL4 coated, Fab 100 nM
Procedure: The plate was blocked by adding 1% BSA in Tris-buffered Saline Tween (TBST) and incubating for 1 hour at room temperature followed by washing 2 times with 150 μl TBST. A Fab antibody was serially diluted in 1% BSA in PBS. […] The reaction was immediately halted by the addition of 50 μl 0.5M H₂SO₄ and the absorbance at 450 nm was measured using an ELISA plate reader.
observable: ELISA absorbance at 450 nm (A450)
// return numeric value only (unit: A450, not printed)

| binder | result |
| --- | --- |
| Fab VH1-46_IGHD6-6*01_IGHJ1*01 S102A/S103P/S104F/H111F & L6_IGKJ1*01 S28N/S30D/S31H S52L (Fab, V domains shown, Fab made in E. coli: VH on CH1 with His6 and Flag tags (Plasmid A), VL on kappa CL (Plasmid C); also called H: APFF & L: NDH S52L) VH: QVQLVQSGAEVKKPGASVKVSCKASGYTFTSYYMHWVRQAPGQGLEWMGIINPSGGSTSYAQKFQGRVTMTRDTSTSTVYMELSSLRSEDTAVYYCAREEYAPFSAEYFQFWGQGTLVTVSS VL: EIVLTQSPATLSLSPGERATLSCRASQNVDHYLAWYQQKPGQAPRLLIYDALNRATGIPARFSGSGSGTDFTLTISSLEPEDFAVYYCQQRSNWPPWTFGQGTKVEIKR | 0.791 |

[Q] Tell me ELISA absorbance at 450 nm reported for Fab VH1-46_IGHD6-6*01_IGHJ1*01 S102A/S103P/S104F/H111F & L6_IGKJ1*01 S28N/S30D/S31H (Fab, V domains shown, Fab made in E. coli: VH on CH1 with His6 and Flag tags (Plasmid A), VL on kappa CL (Plasmid C); also called H: APFF & L: NDH) VH: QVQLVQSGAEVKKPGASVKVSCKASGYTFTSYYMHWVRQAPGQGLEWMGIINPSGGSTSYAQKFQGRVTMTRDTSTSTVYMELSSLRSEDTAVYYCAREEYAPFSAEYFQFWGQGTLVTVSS VL: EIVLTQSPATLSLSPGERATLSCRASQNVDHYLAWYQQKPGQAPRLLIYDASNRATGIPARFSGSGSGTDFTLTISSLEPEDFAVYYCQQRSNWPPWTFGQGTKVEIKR
[A] 0.686

[Q] Read the entry Fab VH5-51_IGHD5-18*01>3_IGHJ4*01 G100K/G104T G24T/S28R/G35V & V3-4_IGLJ1*01 V91L/S96P S52G (Fab, V domains shown, Fab made in E. coli: VH on CH1 with His6 and Flag tags (Plasmid A), VL on lambda CL (Plasmid E); also called H: KT TRV & L: LP S52G) VH: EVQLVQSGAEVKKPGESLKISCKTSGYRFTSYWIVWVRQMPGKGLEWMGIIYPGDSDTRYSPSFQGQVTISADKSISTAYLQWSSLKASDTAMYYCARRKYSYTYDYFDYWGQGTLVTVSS VL: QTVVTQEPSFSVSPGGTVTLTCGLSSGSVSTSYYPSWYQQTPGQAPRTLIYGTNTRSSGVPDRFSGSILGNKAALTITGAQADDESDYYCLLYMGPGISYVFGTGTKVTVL and write its reported ELISA absorbance at 450 nm.
[A] 0.69

[Q] Please report the measured ELISA absorbance at 450 nm for Fab VH1-46_IGHD6-6*01_IGHJ1*01 S102A/S103P/S104F/H111F & L6_IGKJ1*01 S28N/S30D/S31H S52T (Fab, V domains shown, Fab made in E. coli: VH on CH1 with His6 and Flag tags (Plasmid A), VL on kappa CL (Plasmid C); also called H: APFF & L: NDH S52T) VH: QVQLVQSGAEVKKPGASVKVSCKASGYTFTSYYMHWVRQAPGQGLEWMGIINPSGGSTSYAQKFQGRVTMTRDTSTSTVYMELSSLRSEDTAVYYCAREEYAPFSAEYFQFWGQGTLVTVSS VL: EIVLTQSPATLSLSPGERATLSCRASQNVDHYLAWYQQKPGQAPRLLIYDATNRATGIPARFSGSGSGTDFTLTISSLEPEDFAVYYCQQRSNWPPWTFGQGTKVEIKR
[A] 0.653
